# assayed_system: murine Smo (Mus musculus)
# Sequence (P56726 33-793): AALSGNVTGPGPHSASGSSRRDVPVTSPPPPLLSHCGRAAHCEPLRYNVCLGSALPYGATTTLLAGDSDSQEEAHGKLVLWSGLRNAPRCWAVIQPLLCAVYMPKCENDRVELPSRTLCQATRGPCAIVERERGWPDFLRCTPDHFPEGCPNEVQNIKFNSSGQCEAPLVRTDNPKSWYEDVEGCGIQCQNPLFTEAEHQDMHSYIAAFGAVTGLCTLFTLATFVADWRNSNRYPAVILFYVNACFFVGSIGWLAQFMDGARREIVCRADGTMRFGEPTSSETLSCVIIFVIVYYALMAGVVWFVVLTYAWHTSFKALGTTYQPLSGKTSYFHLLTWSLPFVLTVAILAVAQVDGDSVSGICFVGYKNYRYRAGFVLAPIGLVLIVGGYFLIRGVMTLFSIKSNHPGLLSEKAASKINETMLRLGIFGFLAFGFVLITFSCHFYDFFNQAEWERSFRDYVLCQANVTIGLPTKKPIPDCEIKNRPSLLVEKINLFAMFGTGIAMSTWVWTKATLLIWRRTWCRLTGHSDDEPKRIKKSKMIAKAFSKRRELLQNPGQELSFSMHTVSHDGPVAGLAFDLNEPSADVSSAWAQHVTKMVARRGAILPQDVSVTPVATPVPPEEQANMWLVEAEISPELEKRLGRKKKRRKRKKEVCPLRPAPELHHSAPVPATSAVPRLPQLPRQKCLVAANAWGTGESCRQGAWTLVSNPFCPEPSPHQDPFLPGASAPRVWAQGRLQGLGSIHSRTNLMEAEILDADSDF
# protocol_details: filtration membrane-binding assay, Smo-containing membranes from 293T cells
# reported_conditions: Smo^wt, competition with [3H]-Hh-Ag 1.5 (0.4 nM)
readout_name: Ki (nM)
All answers are understood in nM, so give the number only.

Enquiry: Which value of Ki has been reported for COc1cccc(CN(C(=O)CC(C)(C)C)[C@H]2C[C@@H](C(=O)N3CCNCC3)N(Cc3ccc4c(c3)OCO4)C2)c1 [Cur61414] in the records?
Return: 44

----------
# assayed_system: murine Smo (Mus musculus)
# protocol_details: filtration membrane-binding assay, Smo-containing membranes from 293T cells
# reported_conditions: saturation binding, approximately 45 hours at 37°C, one-site model
readout_name: Kd (nM)
All answers are understood in nM, so give the number only.

Enquiry: Which value of Kd has been reported for CNC1CCC(N(Cc2cccc(-c3ccncc3)c2)C(=O)c2sc3c(F)ccc(F)c3c2Cl)CC1 (stereo not shown) in the records?
Return: 0.37
